Attribution: patent US12384775B2

- testedOn: IRAK4 (Homo sapiens, UniProt Q9NWZ3)
- Construct: purchased Signalchem I12-10G-20
- Sequence (Q9NWZ3 whole entry): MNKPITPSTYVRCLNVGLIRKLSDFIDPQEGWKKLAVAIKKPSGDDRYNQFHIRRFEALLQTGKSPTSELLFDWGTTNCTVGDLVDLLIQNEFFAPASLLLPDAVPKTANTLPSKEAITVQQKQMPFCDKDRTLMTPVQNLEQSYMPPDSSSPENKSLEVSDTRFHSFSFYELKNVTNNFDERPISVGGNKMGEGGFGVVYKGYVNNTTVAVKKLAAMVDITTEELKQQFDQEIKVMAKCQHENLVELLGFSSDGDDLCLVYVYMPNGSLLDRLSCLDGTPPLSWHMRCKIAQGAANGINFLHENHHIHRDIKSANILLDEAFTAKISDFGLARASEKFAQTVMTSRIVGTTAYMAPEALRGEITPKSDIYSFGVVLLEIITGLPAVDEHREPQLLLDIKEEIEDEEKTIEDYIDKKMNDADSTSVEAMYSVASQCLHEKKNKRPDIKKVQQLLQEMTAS
- assayProtocol: IRAK4 Z'-LYTE assay
- Type: biochemical
measuredParameter: EC50 (nM)
Write the value in nM as a bare number.

*Q* # lookup: EC50 of CCO[C@H]1CC[C@H](n2cc(NC(=O)c3csc(-c4cn[nH]c4)n3)c(-c3ncccn3)n2)CC1 [Compound I-1]
*A* 6

###

- assayProtocol: Plasma protein binding, equilibrium dialysis (RED), mouse
- Type: in vitro ADME
- condition: drug 5 μM, read-out: % bound (converted)
measuredParameter: fraction unbound at 5 μM
Could you respond with only the numeric value?

CCO[C@H]1CC[C@H](n2cc(NC(=O)c3csc(-c4cn[nH]c4)n3)c(-c3nc(F)ccc3F)n2)CC1 [Comparison-1, reference compound]	0.022

Alright, here's another compound for you.
*Q* Suppose we examine the compound CCO[C@H]1CC[C@H](n2cc(NC(=O)c3csc(-c4cn[nH]c4)n3)c(-c3ncccn3)n2)CC1 ; what fraction unbound at 5 μM value has been reported?
*A* 0.085
